These entries and their values trace back to the supplement of paper PMC13380429.

system: U2OS; experiment: cell viability relative to DMSO; higher = less toxic; details: 72 h; 100 nM
Please respond with reported cell viability for every item in the list.
Please reply with the bare figure in % and do not write the unit itself.

Entry CC[C@@H](CO)NC(=O)[C@@H]1C=C2c3cccc4c3c(cn4C)C[C@H]2N(C)C1 [methysergide] ; assay system U2OS; cell viability recorded at 100

Observed cell viability, U2OS, O=c1[nH]c2ccccc2c(=O)n1CCCN1CCN(c2ccccc2)CC1 : 95.6

Record for CC(=O)c1cc2c(o1)C(=O)c1ccccc1C2=O under target or system U2OS: cell viability reported as 102

Hey, U2OS data for CN1CCC(CNc2ccc3ncc(-c4cccc(OC(F)(F)F)c4)n3n2)CC1 : cell viability came out at 100

Reported cell viability (U2OS) for entry CC(=O)Nc1ccc(Cc2ccc(NC(C)=O)cc2)cc1 is 99.4

// cell viability (U2OS) for Cc1cc(C)c(Nc2ccnc(Nc3ccc(C#N)cc3)n2)c(C)c1 = 101

Value sought: cell viability, system U2OS, item CN1CCN(CCCCN2C(=O)CN(/N=C/c3ccc(-c4ccc(Cl)cc4)o3)C2=O)CC1 [azimilide] . Result: 99.8

Record CO[C@@H]1COCC[C@@H]1N[C@@H]1CC[C@@](C(=O)N2CCc3ncc(C(F)(F)F)cc3C2)(C(C)C)C1 / U2OS, cell viability recorded as 101

Known value: U2OS cell viability of the molecule CC(=O)N(c1onc(C)c1C)S(=O)(=O)c1ccc(N)cc1 equals 101

# cell viability measured on U2OS for item Ic1cncc(OC[C@@H]2CCN2)c1 = 96.7

Lab entry: U2OS assay, molecule C[C@H](NC(=O)CNC(=O)c1cccc(Cl)c1)c1ccccc1 , cell viability = 99.7

O=C1c2c(O)cc(O)cc2O[C@H](c2ccc(O)c(O)c2)[C@H]1O tested on U2OS gave cell viability: 92.9

Bench note, U2OS: O=C(NN1C(=O)[C@@H]2[C@@H]3C=C[C@@H]([C@H]4C[C@@H]34)[C@@H]2C1=O)c1ccc(C(F)(F)F)cc1 , cell viability reads 107

Note to self: cell viability of O=[N+]([O-])c1cccc2cn[nH]c12 with U2OS was 99.8

For Cc1nc(-c2ccc(OCC(C)C)c(C#N)c2)sc1C(=O)O on U2OS, measured cell viability was 97.2

Field cell viability (system: U2OS) for entry Cc1ccc(S(=O)(=O)NCc2ccccc2)cc1 = 107

The value of cell viability recorded for CCCC[C@@H](NC(=O)[C@@H](Cc1cn(C(=O)OC)c2ccccc12)NC(=O)[C@H](CC(C)(C)C)NC(=O)N1[C@H](C)CCC[C@@H]1C)C(=O)O when tested on U2OS reads 95.8

The molecule Cn1ncc2c(N3CCOCC3)nc(-c3cccc(O)c3)nc21 , tested on U2OS, showed cell viability of 99.3

The reported cell viability value, U2OS, for CC1(C)CCC(C)(C)c2cc(C(=O)Nc3ccc(C(=O)O)cc3)ccc21 reads 95.6

Reading of cell viability for NS(=O)(=O)c1ccc(-n2nc(C(F)(F)F)cc2-c2ccc(Cl)cc2)cc1 with U2OS: 98.1

====

Provide the recorded drug sensitivity score for the entries that follow.
tested on: Vero E6; test: drug sensitivity score (DSS) for viability; higher = more toxic; extreme values may be limits of the assay; conditions: 72 h
Structures can show the parent of a compound that is named as a salt.

Sample CCn1cc(C(=O)O)c(=O)c2cc(F)c(N3CCN(C)CC3)cc21 [pefloxacin] ; drug sensitivity score observed: 0

Form field drug sensitivity score, entry Nc1nc(-c2nn(Cc3ccccc3F)c3ncccc23)ncc1C1CC1 [BAY-41-2272] : 2.9

Item: CCOc1ccc(-n2c([C@@H](C)N(Cc3cccnc3)C(=O)Cc3ccc(F)c(C(F)(F)F)c3)nc3ncccc3c2=O)cc1 (racemic) | drug sensitivity score: 0

The compound listed as Nc1nc(O)c2[nH]nnc2n1 [azaguanine-8] shows drug sensitivity score equal to 2.3

// field: drug sensitivity score; key: CC[N+](CC)(CC(=O)Nc1c(C)cccc1C)Cc1ccccc1 [denatonium-benzoate] ; value = 0

Lab note: measured drug sensitivity score of CC(=O)OCC(=O)[C@@]1(O)CC[C@H]2[C@@H]3CCC4=CC(=O)CC[C@]4(C)[C@H]3C(=O)C[C@@]21C [cortisone-acetate] was 0

Query CCC[C@@H](NC(=O)N1C(=O)C(CC)(CC)[C@@H]1Oc1ccc(C(=O)N2CCN(C)CC2)cc1)c1ccc2c(c1)OCO2 [DMP-777] yields drug sensitivity score of 0

Reported drug sensitivity score for CCC1(c2ccc(N)cc2)CCC(=O)NC1=O (stereo not given) [aminoglutethimide] was 0

drug sensitivity score in this record for C#CCN(C)[C@H](C)Cc1ccccc1 [selegiline] : 0

Field drug sensitivity score (entry CC1/C=C/C=C/C=C/C=C/C=C/C=C/C=C/C(OC2O[C@H](C)[C@@H](O)[C@H](N)[C@@H]2O)CC(O)C(C(=O)O)C(O)CC(=O)CC(O)CC(O)CC(O)CC(=O)CCCC(=O)CC(=O)OC1C(C)CC(C)C(O)CC(=O)c1ccc(N)cc1 (stereo not given in full) [candicidin] ) reads 0.6

The recorded drug sensitivity score for CCN1C[C@H](C)n2c(c(O)c3c(=O)n(Cc4ccc(F)c(Cl)c4)nc(C(=O)NC)c32)C1=O [MK-2048] is 0

Per the records, this compound ( CC(=O)N(c1onc(C)c1C)S(=O)(=O)c1ccc(N)cc1 [sulfisoxazole-acetyl] ) has drug sensitivity score equal to 0

drug sensitivity score reported for this compound CCCCC/C=C\C=C\CCCCCCCCC(=O)O [trans-10,cis-12-conjugated-linoleic-acid] : 0

For this compound ( CC/C(=C(/CC)c1ccc(O)cc1)c1ccc(O)cc1 [diethylstilbestrol] ), measured drug sensitivity score is 0

Entry CCCCc1ccc(O)cc1O [rucinol] , drug sensitivity score reported as 0

drug sensitivity score measured on C#Cc1cnc2nc(O)n(C(CC)CC)c2n1 [tirasemtiv] = 0

Given item O=C(O)Cc1ccc(OCCNC[C@H](O)c2ccccc2)cc1 [ZD-2079] , the value recorded as its drug sensitivity score is 0

Sample CC1(C)CCC(C)(C)c2cc(C(=O)Nc3ccc(C(=O)O)cc3)ccc21 [AM-580] ; drug sensitivity score observed: 0

# drug sensitivity score (compound: Oc1cc2c(cc1O)[C@H](Cc1cccc3ccccc13)NCC2 [CKD-712] ) is 0

Please fill in: drug sensitivity score reported for Fc1cccc(/C=N/N=C/c2cccc(F)c2)c1 [DFB] = 0

Record NC(=O)c1nc(Nc2ccccc2)sc1NC(=O)C1CCCCC1 [UNC3230] , field drug sensitivity score: 1.4

Record summary for NS(=O)(=O)C#Cc1ccccc1 [pifithrin-mu] : reported drug sensitivity score = 1

GET /value?item= COc1cccc2c1C(=O)c1c(O)c3c(c(O)c1C2=O)C[C@@](O)(C(=O)CO)C[C@@H]3O[C@H]1C[C@H](N)[C@@H](O)[C@H](C)O1 [Epirubicin Hydrochloride] &field=drug sensitivity score returns 7

So, C=C1/C(=C\C=C2/CCC[C@]3(C)[C@@H]([C@H](C)CCCC(C)(C)O)CC[C@@H]23)C[C@@H](O)C[C@@H]1O [calcitriol] ? Its drug sensitivity score was 0

// drug sensitivity score lookup, compound = C=C1C[C@]23C[C@@]1(O)CC[C@H]2[C@@]12C=C[C@H](O)[C@@](C)(C(=O)O1)[C@H]2[C@@H]3C(=O)O [MD-920] , result: 0

====

test system: U2OS; test: cell viability relative to DMSO; higher = less toxic; conditions: 72 h; 1000 nM
measure-name: cell viability (%)
Numeric answer only, unit % assumed.

cell viability in this record for CC[C@H]1[C@@H](O)[C@@H]2[C@H](CC[C@]3(C)[C@@H]([C@H](C)CCC(=O)O)CC[C@@H]23)[C@@]2(C)CC[C@@H](O)C[C@@H]12 [obeticholic-acid] : 104

Measured cell viability of c1ccc2c(-c3cnn4cc(-c5ccc(N6CCNCC6)cc5)cnc34)ccnc2c1 : 80.4

Lab note: Nc1sc2c(c1C(=O)c1ccc(Cl)cc1)CCCC2 [T-62] gave cell viability of 101

Entry Cc1ccc(N(CC2=NCCN2)c2cccc(O)c2)cc1 [phentolamine] , cell viability reported as 101

Documented cell viability of CC(=O)OCC(=O)[C@@]1(O)CC[C@H]2[C@@H]3CCC4=CC(=O)CC[C@]4(C)[C@H]3C(=O)C[C@@]21C [cortisone-acetate] : 101

Given item O=c1ncn2nc(Sc3ccc(F)cc3F)ccc2c1-c1c(Cl)cccc1Cl [VX-745] , the value recorded as its cell viability is 94.9

The measured cell viability associated with CNC(=O)O[C@H]1COc2ccc(N3CCN(C4COC4)CC3)cc2[C@@H]1NC(=O)c1ccc(F)cc1 reads 104

Value of measured cell viability for the entry O=C(Nc1cccnc1)c1cc(-c2ccnc(F)c2)ccc1OCc1ccccc1 : 96.3

# cell viability (molecule: C[N+](C)(C)CCCCCC[N+](C)(C)C [hexamethonium] ) is 103

cell viability reading for COc1cc2c(cc1O)C(CCc1ccc(Cl)cc1)N(C)CC2 (stereo not given) [Ro-04-5595] : 95.1
